- measured_on: p38 MAP kinase (Homo sapiens, UniProt Q16539)
- Sequence (Q16539 whole entry): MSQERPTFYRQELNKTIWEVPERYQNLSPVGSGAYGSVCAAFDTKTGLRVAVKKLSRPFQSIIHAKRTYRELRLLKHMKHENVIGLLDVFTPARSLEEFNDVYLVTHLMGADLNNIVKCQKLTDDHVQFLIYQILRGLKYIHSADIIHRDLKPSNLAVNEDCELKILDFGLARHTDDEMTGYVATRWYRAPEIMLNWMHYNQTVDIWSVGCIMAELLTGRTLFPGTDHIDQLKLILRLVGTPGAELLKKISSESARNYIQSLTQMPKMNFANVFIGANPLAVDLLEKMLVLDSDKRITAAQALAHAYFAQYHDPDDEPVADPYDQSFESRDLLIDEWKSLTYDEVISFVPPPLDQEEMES
- experiment_notes: p38 (MAP) kinase in vitro assay (transfer of γ-33P from ATP to Myelin Basic Protein)
- conditions: phosphorylated recombinant p38 MAP kinase, MBP substrate, γ-33P-ATP, 30° C.
observable: IC50

Can you share its IC50? I mean this compound: "O=S(=O)(Nc1ccc2c(-c3ccccc3Cl)n[nH]c2c1)c1cccc(Cl)c1F"
~20 nM
